- tested target: human HDAC4 (Homo sapiens)
- Construct: FLAG; made in house; host or cells: 293T cells (transient transfection, anti-FLAG immunoprecipitation, FLAG peptide elution)
- Sequence (O15379 whole entry partner): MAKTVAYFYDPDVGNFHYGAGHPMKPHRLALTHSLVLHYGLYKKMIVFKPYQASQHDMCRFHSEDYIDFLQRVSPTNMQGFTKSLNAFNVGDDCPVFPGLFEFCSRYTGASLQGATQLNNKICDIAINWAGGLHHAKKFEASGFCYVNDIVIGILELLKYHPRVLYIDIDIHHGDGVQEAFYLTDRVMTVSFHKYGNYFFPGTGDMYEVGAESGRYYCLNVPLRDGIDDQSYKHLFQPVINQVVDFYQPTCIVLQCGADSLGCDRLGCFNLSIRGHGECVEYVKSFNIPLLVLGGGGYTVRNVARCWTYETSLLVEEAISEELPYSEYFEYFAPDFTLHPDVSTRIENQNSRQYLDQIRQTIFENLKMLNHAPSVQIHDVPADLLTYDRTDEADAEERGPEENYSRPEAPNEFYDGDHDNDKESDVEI
- Sequence (P56524 whole entry): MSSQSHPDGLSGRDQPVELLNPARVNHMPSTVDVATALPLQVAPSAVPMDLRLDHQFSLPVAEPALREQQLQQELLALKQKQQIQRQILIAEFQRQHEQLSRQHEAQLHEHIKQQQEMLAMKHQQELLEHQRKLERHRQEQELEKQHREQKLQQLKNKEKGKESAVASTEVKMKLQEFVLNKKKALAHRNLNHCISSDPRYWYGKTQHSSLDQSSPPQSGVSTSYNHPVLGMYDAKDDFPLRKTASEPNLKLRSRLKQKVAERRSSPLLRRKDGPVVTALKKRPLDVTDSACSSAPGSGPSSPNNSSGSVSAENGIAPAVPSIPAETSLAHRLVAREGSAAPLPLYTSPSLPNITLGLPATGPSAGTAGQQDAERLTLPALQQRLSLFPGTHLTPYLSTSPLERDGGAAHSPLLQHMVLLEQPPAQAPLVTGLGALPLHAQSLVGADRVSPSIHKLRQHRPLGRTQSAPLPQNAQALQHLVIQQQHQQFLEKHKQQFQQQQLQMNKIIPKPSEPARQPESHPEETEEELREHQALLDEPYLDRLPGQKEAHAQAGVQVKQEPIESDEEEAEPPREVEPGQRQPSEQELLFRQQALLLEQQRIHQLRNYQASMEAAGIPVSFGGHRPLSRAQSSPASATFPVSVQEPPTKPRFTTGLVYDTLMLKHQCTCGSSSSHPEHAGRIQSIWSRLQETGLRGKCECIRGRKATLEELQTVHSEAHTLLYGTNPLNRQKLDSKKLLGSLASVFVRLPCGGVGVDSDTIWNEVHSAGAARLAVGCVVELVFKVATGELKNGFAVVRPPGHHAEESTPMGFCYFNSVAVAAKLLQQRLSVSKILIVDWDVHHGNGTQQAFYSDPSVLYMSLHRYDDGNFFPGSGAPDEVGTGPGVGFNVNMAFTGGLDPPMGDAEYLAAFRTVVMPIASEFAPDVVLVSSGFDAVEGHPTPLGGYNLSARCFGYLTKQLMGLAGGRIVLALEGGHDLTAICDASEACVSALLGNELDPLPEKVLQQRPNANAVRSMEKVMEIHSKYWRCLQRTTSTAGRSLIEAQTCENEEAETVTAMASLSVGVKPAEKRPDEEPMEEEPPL
- test: In vitro HDAC inhibition activity, [3H]-acetylated histone substrate, HDAC4
- Assay type: biochemical
- condition label: Table 2; homodimer
*1 amine or outer side, *2 acyl side, *3 side chain or, on linkers, in order; H or OH if unused. Where a SMILES comes first, the peptide text is derived from it. Bridges are numbered along the chain shown (N, C = ends). Roman numbers before positions name the chains, in order. [ ]: non-standard residue; d: D form. hNle(7-SH) = O=C([C@H](CCCCCS[*:3])N[*:1])[*:2]; Pip = O=C(O)[C@@H]1CCCCN1
value kind: IC50
Please append the unit to your numeric answer.

Q: Look up IC50 for this molecule: CC[C@H](C)[C@@H]1NC(=O)[C@@H](Cc2ccc(OC)cc2)NC(=O)[C@H](CCCCCSSCCCCC[C@@H]2NC(=O)[C@H]3CCCN3C(=O)[C@H]([C@@H](C)CC)NC(=O)[C@@H](Cc3ccc(OC)cc3)NC2=O)NC(=O)[C@H]2CCCN2C1=O [SCOP 304, cyclo(-L-Am7(-)-D-Tyr(Me)-L-Ile-D-Pro-)] (I: cyclo([hNle(7-SH)][dY](Me)I[dP]) / II: cyclo([hNle(7-SH)][dY](Me)I[dP]); disulfide I:1-II:1)
Ans: 145 nM

Q: Look up IC50 for this molecule: CC[C@H](C)[C@@H]1NC(=O)[C@@H](Cc2ccc(OC)cc2)NC(=O)[C@H](CCCCCCSSCCCCCC[C@@H]2NC(=O)[C@H]3CCCN3C(=O)[C@H]([C@@H](C)CC)NC(=O)[C@@H](Cc3ccc(OC)cc3)NC2=O)NC(=O)[C@H]2CCCN2C1=O [SCOP 306, cyclo(-L-Am8(-)-D-Tyr(Me)-L-Ile-D-Pro-]
Ans: 319 nM

Q: Look up IC50 for this molecule: CC[C@H](C)[C@@H]1NC(=O)[C@@H](Cc2ccc(OC)cc2)NC(=O)[C@H](CCCCCSSCCCCC[C@@H]2NC(=O)[C@@H]3CCCCN3C(=O)[C@H]([C@@H](C)CC)NC(=O)[C@@H](Cc3ccc(OC)cc3)NC2=O)NC(=O)[C@@H]2CCCCN2C1=O [SCOP 298, cyclo(-L-Am7(-)-D-Tyr(Me)-L-Ile-L-Pip-] (I: cyclo([hNle(7-SH)][dY](Me)I[Pip]) / II: cyclo([hNle(7-SH)][dY](Me)I[Pip]); disulfide I:1-II:1)
Ans: 33.7 nM

---

- tested target: human HDAC1 (Homo sapiens, UniProt Q13547)
- Construct: FLAG; made in house; host or cells: 293T cells (transient transfection, anti-FLAG immunoprecipitation, FLAG peptide elution)
- Sequence (Q13547 whole entry): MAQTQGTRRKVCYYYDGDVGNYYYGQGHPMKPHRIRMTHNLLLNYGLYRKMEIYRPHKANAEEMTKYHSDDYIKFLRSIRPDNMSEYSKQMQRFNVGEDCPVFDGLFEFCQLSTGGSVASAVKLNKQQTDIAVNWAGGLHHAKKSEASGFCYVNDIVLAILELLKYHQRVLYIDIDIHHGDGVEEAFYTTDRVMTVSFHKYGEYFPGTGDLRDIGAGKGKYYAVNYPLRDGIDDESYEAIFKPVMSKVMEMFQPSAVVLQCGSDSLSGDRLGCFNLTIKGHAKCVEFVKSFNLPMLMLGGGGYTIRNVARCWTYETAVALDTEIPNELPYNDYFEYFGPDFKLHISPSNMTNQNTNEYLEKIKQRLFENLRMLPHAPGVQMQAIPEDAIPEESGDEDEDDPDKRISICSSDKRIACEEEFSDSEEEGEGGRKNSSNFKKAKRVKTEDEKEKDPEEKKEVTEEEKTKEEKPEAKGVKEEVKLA
- test: In vitro HDAC inhibition activity, [3H]-acetylated histone substrate, HDAC1
- Format: biochemical
- condition label: Table 1; X = H (coexisting with DTT)
Where a SMILES comes first, the peptide text is derived from it. [ ]: non-standard residue; d: D form. Gly((CH2)5SH) = N[C@@H](CCCCCS)C(=O)O; Pip = O=C(O)[C@@H]1CCCCN1
Listing of entries alongside the reported IC50.
Quick note: give the figure in nM, leave out the unit.

As a guide, the following entries are already answered.
CC[C@H](C)[C@@H]1NC(=O)[C@@H](Cc2ccc(OC)cc2)NC(=O)[C@H](CCCCCS)NC(=O)[C@H]2CCCN2C1=O [SCOP 152] (cyclo([Gly((CH2)5SH)][dY](Me)I[dP]))    4.6
CC[C@H](C)[C@@H]1NC(=O)[C@@H](Cc2ccc(OC)cc2)NC(=O)[C@H](CCCCS)NC(=O)[C@H]2CCCN2C1=O    932
CC[C@H](C)[C@@H]1NC(=O)[C@@H](Cc2ccc(OC)cc2)NC(=O)[C@H](CCCCCS)NC(=O)[C@@H]2CCCN2C1=O [SCOP 148] (cyclo([Gly((CH2)5SH)][dY](Me)IP))    81.4

Next compound, IC50 to be filled in.
Q: Look up IC50 for this compound: CC[C@H](C)[C@@H]1NC(=O)[C@@H](Cc2ccc(OC)cc2)NC(=O)[C@H](CCCCCS)NC(=O)[C@@H]2CCCCN2C1=O [SCOP 149] (cyclo([Gly((CH2)5SH)][dY](Me)I[Pip]))
Ans: 2.37
